Test: gradient 5% acetonitrile 3 min, to 50% in 2 min, to 85% in 15 min, held 3 min, 100 µL/min
Details: column: Zorbax Extend-C18 2.1 x 50 mm; eluents: water / acetonitrile, 0.1% formic acid
The entries below come with measured RP-LC retention time values attached.
Number only, in s; omit the unit.

[
  {
    "compound": "OC[C@@H]1CN(Cc2cn[nH]c2-c2ccc(F)cc2)C[C@H]1c1ccccn1",
    "RP-LC retention time / s": 586
  },
  {
    "compound": "O=C(CN1CC(c2nc(-c3cccs3)no2)C1)N1CCc2ccccc21",
    "RP-LC retention time / s": 605
  },
  {
    "compound": "Cc1ccc(NC(=O)C2CCc3sc(C(=O)N(C)C)cc3C2)c(C)c1 (centres undefined)",
    "RP-LC retention time / s": 799
  }
]

Note: attention shifts to another entry.
Quick one: RP-LC retention time for CCOc1ccc(NC(=O)c2oc3ccc(Cl)cc3c2C)c2cccnc12 ?
789
